These entries and their values trace back to patent US20240101544A1.

Target: QPCT (rhQPCT) (Homo sapiens (Human))
Sequence (Q16769 29-361): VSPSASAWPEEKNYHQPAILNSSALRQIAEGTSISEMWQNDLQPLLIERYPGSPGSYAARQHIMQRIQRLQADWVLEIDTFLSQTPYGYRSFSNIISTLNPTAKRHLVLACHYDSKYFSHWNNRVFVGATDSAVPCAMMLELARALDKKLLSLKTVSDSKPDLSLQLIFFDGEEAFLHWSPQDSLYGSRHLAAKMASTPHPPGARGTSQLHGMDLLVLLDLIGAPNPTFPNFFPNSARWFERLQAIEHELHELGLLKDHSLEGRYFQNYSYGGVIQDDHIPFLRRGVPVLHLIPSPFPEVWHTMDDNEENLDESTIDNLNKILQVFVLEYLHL
property: IC50

compound	recorded result
Cc1cc(-c2c(F)ccc(C#N)c2N2CCC(c3nncn3C)CC2)cnn1 [Example 59]	100 to 1000 nM

Lab note: next compound to report on.
What value of IC50 has been reported for the following compound? Cn1cnnc1C1CCN(c2c(C#N)ccc(F)c2-c2ccc(F)nc2)CC1 [Example 38]
< 100 nM

* * *

IC50 by entry:
Target: QPCTL (Homo sapiens (Human), UniProt Q9NXS2)
Sequence (Q9NXS2 whole entry): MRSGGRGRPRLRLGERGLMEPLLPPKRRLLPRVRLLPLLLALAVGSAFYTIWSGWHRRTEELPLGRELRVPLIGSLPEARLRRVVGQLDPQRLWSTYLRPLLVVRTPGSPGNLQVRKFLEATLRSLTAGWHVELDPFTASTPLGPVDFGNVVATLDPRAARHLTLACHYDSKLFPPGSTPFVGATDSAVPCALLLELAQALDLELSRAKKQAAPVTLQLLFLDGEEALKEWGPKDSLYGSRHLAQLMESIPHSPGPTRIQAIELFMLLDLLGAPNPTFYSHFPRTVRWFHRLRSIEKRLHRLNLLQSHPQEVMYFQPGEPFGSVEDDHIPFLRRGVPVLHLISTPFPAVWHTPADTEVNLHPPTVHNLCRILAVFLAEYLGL
Test: Inhibition of Cellular QPCTL Activity - Imaging Assay, CC2C6 anti-CD47 staining of DLD-1 cells
Type: cell-based
Conditions: 72 hours, CC2C6 anti-CD47 high-content imaging

Cn1cnnc1C1CCN(c2c(C#N)ccc(F)c2-c2ccc(F)nc2)CC1 < 100 nM
Cn1cnnc1C1CCN(c2c(-c3ccc(F)nc3)ccc(-c3ccnc(N)c3)c2C#N)CC1 < 100 nM
COc1ccc(-c2cnc3nccn3c2)c(N2CCC(c3nncn3C)CC2)c1C#N 1000 to 10000 nM
Cc1cc(C#N)c(N2CCC(c3nncn3C)CC2)c(-c2ccc(F)nc2)c1 < 100 nM
Cn1ccc(-c2ccc(-c3ccc(F)nc3)c(N3CCN(c4nncn4C)CC3)c2C#N)n1 < 100 nM

What value of IC50 has been reported for the following compound? `CN(C)C(=O)c1ccc(-c2ccc(F)nc2)c(N2CCC(c3nncn3C)CC2)c1C#N`
100 to 1000 nM

Lookup `Cn1cnnc1C1CCN(c2c(C#N)cccc2-c2cncc(Cl)c2)CC1`
100 to 1000 nM

Lookup `Cn1cnnc1C1CCN(c2c(-c3ccc(F)nc3)ccc(-c3cc[nH]n3)c2C#N)CC1`
< 100 nM
